Target: T1, cynomolgus monkey CGRP receptor (cynomolgus monkey, UniProt A0A2K5VQ71 34-472)
T1 construct: whole, on cells; Presented as detergent-solubilized lysate of HEK cells expressing the cynomolgus receptor; also called Cyno CGRP Receptor; Cynomolgus Monkey CGRP Receptor/HEK detergent-solubilized cell lysate
T1 sequence (A0A2K5VQ71 entry or part of it): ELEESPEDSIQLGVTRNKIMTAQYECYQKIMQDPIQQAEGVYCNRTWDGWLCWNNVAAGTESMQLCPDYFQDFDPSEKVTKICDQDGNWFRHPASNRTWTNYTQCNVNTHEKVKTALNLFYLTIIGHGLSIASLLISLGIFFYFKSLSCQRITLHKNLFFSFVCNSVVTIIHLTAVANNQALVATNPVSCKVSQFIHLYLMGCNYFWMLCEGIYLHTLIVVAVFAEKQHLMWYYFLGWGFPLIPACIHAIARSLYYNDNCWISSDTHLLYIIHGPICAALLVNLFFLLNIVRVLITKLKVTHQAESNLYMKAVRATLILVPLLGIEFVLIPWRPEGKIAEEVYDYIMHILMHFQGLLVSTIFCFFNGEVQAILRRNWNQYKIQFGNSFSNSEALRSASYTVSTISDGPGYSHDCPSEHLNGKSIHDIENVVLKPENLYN
Assay: yeast-displayed Fab, FACS, detergent-solubilized lysate of cynomolgus CGRP receptor/HEK cells vs blank cells
reported endpoint: Mutant vs. 4E4.2 Parent Specific Binding Ratio (fold)
Give the number; fold is assumed, so skip it.

Recorded results for 2 binders are shown here.
binder: anti-CGRP receptor variant 01, yeast-displayed Fab (Fab, V domains shown, also called Variant Ab ID 01) VH: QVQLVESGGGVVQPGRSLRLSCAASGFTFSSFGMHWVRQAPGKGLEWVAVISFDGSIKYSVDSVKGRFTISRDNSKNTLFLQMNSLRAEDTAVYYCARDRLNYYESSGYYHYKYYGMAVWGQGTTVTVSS VL: QSVLTQPPSVSAAPGQKVTISCSGSYSNIGRYSVSWYQQLPGTAPKLLIYDNNKRPSGIPDRFSGSKSGTSATLGITGLQTGDEADYYCGTWDSRLSAVVFGGGTKLTVLG
units text: fold
readout number: 2.4
--
binder: anti-CGRP receptor variant 12, yeast-displayed Fab (Fab, V domains shown, also called Variant Ab ID 12) VH: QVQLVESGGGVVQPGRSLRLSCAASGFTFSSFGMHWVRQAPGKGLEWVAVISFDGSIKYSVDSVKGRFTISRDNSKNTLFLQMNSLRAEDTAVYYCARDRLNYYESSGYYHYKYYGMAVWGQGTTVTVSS VL: QSVLTQPPSVSAAPGQKVTISCSGSRSNIGRYSVSWYQQLPGTAPKLLIYDNRYRAQGIPDRFSGSKSGTSATLGITGLQTGDEADYYCGTWDWATTSVVFGGGTKLTVLG
units text: fold
readout number: 5.4

Documented Mutant vs. 4E4.2 Parent Specific Binding Ratio of anti-CGRP receptor variant 10, yeast-displayed Fab (Fab, V domains shown, also called Variant Ab ID 10) VH: QVQLVESGGGVVQPGRSLRLSCAASGFFFGSYGMHWVRQAPGKGLEWVAVISFAGEIEHYVDSVKGRFTISRDNSKNTLFLQMNSLRAEDTAVYYCARDRLNYYESSGYYHYKYYGMAVWGQGTTVTVSS VL: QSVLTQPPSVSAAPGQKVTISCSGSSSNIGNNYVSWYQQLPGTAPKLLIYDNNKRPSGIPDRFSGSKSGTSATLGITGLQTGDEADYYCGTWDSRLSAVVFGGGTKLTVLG : 1.6
